This collection of values is drawn from PubChem BioAssay AID1159580.

Measurement Description: chemical genetic growth profiling, strain panel (AID 1159580);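 note: tested at 20 µM; growth read once vehicle control cultures reached saturation at 30 °C; 1 = growth at the plate median or of vehicle wells; lower values mean less growth of the strain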
Test Conditions: S. cerevisiae strains, growth OD, strain wild type, active compounds read low
Among all 5,500 compounds or so, about 2,000 (36%) were called active. Roughly 18% stayed inconclusive and do not appear here. The list shows a part of the results.
normalized growth vs 1: less than gives condition met; not less than gives condition not met.

Example cases with answers are listed next.
C=C/C(C)=C\CC1C(C)(O)CCC2C(C)(C)CCCC21C (centres undefined) :: condition met
CCCCCc1ccc(C(=O)O/N=C\c2c(Cl)cccc2Cl)cc1 :: condition met
O=C(CSCc1c(F)cccc1Cl)Nc1ccc(F)c(Cl)c1 :: condition met
Nc1c2ccccc2nc2ccccc12 :: condition met
Cc1cc(O)c2c(c1)Cc1cccc(O)c1C2=O :: condition met

Asked: Say whether its normalized growth is strictly beneath 1. Entry: Cc1cc(C(C)(C)C)c(O)c(C(C)(C)C)c1
Given back: condition met

###

Measurement Description: chemical genetic growth profiling, strain panel (AID 1159580)
Test Conditions: S. cerevisiae deletion strains, growth OD, locus YOL006C, strain TOP1, active compounds read low
Out of some 5,500 compounds screened, about 2,000 (36%) were called active. About 18% were inconclusive and are not listed. This is one part of the list.
# thresholds on normalized growth define classes: lowest (below 0.9), middle (0.9 to below 1), highest (1 or more)

Example cases with answers are listed next.
C[C@@H]1C(=O)O[C@H]2[C@H]1CC[C@@]1(C)C=CC(=O)[C@@]3(C)O[C@@]213 :: highest
Cc1noc(C)c1NC(N)=O :: highest
CCOC(=O)c1ccc2[nH]c(-c3ccccc3)cc(=O)c2c1 :: highest
CCOC(=O)c1nc(-c2ccccc2)sc1C(=O)OCC :: lowest
CCCCCCCCCCCC[C@H](C(=O)O)[C@@H](C)C(=O)O :: highest

Asked: # classify by normalized growth band: COc1ccc2c(c1)c(CC(=O)OCC(=O)O)c(C)n2C(=O)c1ccc(Cl)cc1
Given back: highest

Asked: # classify by normalized growth band: CCOC(=O)OC(C)OC(=O)C1N2C(=O)C(NC(=O)[C@H](N)c3ccccc3)C2SC1(C)C (stereo partly drawn)
Given back: lowest

Asked: # classify by normalized growth band: CC(C)(C#N)O[C@@H]1O[C@H](CO)[C@@H](O)[C@H](O)[C@H]1O
Given back: highest

Asked: # classify by normalized growth band: CC(=O)/C=C\[C@@H]1[C@@]2(C)CCCC(C)(C)C2CC[C@@]1(C)O (stereo partly drawn)
Given back: lowest

Asked: # classify by normalized growth band: Cc1ccnc(NS(=O)(=O)c2ccc(N)cc2)n1
Given back: highest

###

Measurement Description: chemical genetic growth profiling, strain panel (AID 1159580)
Test Conditions: S. cerevisiae deletion strains, growth OD, locus YNL322C, strain KRE1, active compounds read low
In all, about 5,500 compounds went through this assay and about 2,000 (36%) were called active. About 18% were inconclusive and are not listed. Some of the results follow.
Let's look at some molecules and their measured normalized growth.
# answer = number (no unit)

CO[C@@]12[C@@H]3NC3CN1C1=C(C(=O)C(N)=C(C)C1=O)[C@@H]2COC(N)=O (some centres undefined) :: 0.997
O=C(O)/C=C1\CCCc2ccccc2C1O (centres undefined) :: 0.986
COC(=O)Nc1nc2ccc(C(=O)c3ccccc3)cc2[nH]1 :: 0.997
C[C@@H]1O[C@@H](O[C@H]2C[C@@H](O)[C@]3(CO)[C@@H]4C(CC[C@]3(O)C2)[C@@]2(O)CC[C@H](C3COC(=O)C3)[C@@]2(C)C[C@H]4O)[C@H](O)[C@H](O)[C@H]1O (some centres undefined) :: 1.01
COC(=O)Nc1nc2ccc(Sc3ccccc3)cc2[nH]1 :: 1

Asked: Return reported normalized growth. Input molecule: O=C1ON=C(CSc2ccccc2)/C1=C/c1ccc(Cl)cc1
Given back: 0.0609

Asked: Return reported normalized growth. Input molecule: CC1C(=O)N(C)C(=O)c2nc[nH]c21 (centres undefined)
Given back: 0.992

Asked: Return reported normalized growth. Input molecule: O=C1ON=C(c2ccccc2)/C1=C/c1ccc(Cl)cc1
Given back: 0.472

Asked: Return reported normalized growth. Input molecule: C=C1SC(=Nc2cccc(OC)c2)N(C(=O)C(c2ccccc2)C2CCCC2)C1(C)C (centres undefined)
Given back: 0.984

###

Measurement Description: chemical genetic growth profiling, strain panel (AID 1159580)
Test Conditions: S. cerevisiae deletion strains, growth OD, locus YJR016C, strain ILV3, active compounds read low
In all, about 5,500 compounds went through this assay and about 2,000 (36%) were called active. Another 18% or so got no clear call; they are omitted. The list shows a part of the results.
Measured Endpoint: normalized growth
# answer = number (no unit)

Recorded normalized growth, per entry:
CCOC(=O)c1cc(CC)sc1NC(=O)c1ccc([N+](=O)[O-])o1 :: 0.95
Cc1nc(-c2cccnc2)nc(NCc2ccccc2)c1Cl :: 0.935

Asked: Return reported normalized growth. Input compound: CC(C)Cc1ccc(C(C)C(=O)Nc2nn(C)c3ccccc23)cc1 (stereo unspecified)
Given back: 0.99

Asked: Return reported normalized growth. Input compound: COC(=O)c1cnn(-c2c(Cl)cccc2Cl)c1C=C(C#N)C#N
Given back: 0.955

Asked: Return reported normalized growth. Input compound: Cc1ccc(S(=O)(=O)n2c(Sc3ccc([N+](=O)[O-])cc3[N+](=O)[O-])nc3cc(C)ccc32)cc1
Given back: 0.986

###

Measurement Description: chemical genetic growth profiling, strain panel (AID 1159580)
Test Conditions: S. cerevisiae deletion strains, growth OD, locus YDL185W, strain tfp1, active compounds read low
The whole screen tested about 5,500 compounds, of which about 2,000 (36%) were called active. Not shown: some 18% with an inconclusive outcome. The list shows a part of the results.
Let's look at some compounds and their measured normalized growth.
# answer = number (no unit)

OC(CCN1CCCCC1)(c1ccccc1)C1CCCCC1 (stereo unspecified) :: 1

Asked: Return reported normalized growth. Input compound: Nc1ccc(S(=O)(=O)Nc2ccnn2-c2ccccc2)cc1
Given back: 1

Asked: Return reported normalized growth. Input compound: COC(=O)C[C@H]1C(C)(C)C2(O)OC34CC2C(=O)[C@]1(C)C3CC[C@]1(C)C4=CC(=O)O[C@H]1c1ccoc1 (stereo partly specified)
Given back: 1.01

###

Measurement Description: chemical genetic growth profiling, strain panel (AID 1159580);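 note: tested at 20 µM; growth read once vehicle control cultures reached saturation at 30 °C; 1 = growth at the plate median or of vehicle wells; lower values mean less growth of the strain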
Test Conditions: S. cerevisiae deletion strains, growth OD, locus YNL183C, strain NPR1, active compounds read low
Hit rate of the full screen: of about 5,500 compounds, about 2,000 (36%) were called active. Not shown: some 18% with an inconclusive outcome. Some of the results follow.
Measured Endpoint: normalized growth
# answer = number (no unit)

Asked: Return reported normalized growth. Input compound: COc1ccc2c3c([nH]c2c1)C(C)=NCC3
Given back: 0.934

Asked: Return reported normalized growth. Input compound: O=C1c2c(O)cccc2Cc2cccc(O)c21
Given back: 1

Asked: Return reported normalized growth. Input compound: Nc1c2c(nc3ccccc13)CCCC2O (stereo not given)
Given back: 0.912

Asked: Return reported normalized growth. Input compound: OC(CCN1CCCC1)(c1ccccc1)C1CCCCC1 (stereo not given)
Given back: 0.989

Asked: Return reported normalized growth. Input compound: CCOc1ccc2nc3cc(N)ccc3c(N)c2c1
Given back: 0.875

Asked: Return reported normalized growth. Input compound: O=C(NCCNc1ncc(C(F)(F)F)cc1Cl)C(F)(F)Sc1ccccc1
Given back: 0.961

###

Measurement Description: chemical genetic growth profiling, strain panel (AID 1159580);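 note: tested at 20 µM; growth read once vehicle control cultures reached saturation at 30 °C; 1 = growth at the plate median or of vehicle wells; lower values mean less growth of the strain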
Test Conditions: S. cerevisiae deletion strains, growth OD, locus YBR171W, strain sec66, active compounds read low
The campaign covered roughly 5,500 compounds. About 2,000 (36%) were called active. Inconclusive results (about 18%) are left out. The list shows a part of the results.
Measured Endpoint: normalized growth
# answer = number (no unit)

CCC(C)C(NC)C(=O)O (stereo not given) :: 1.05
C[C@]12CCC(=O)C=C1CCC1C2[C@@H](O)C[C@@]2(C)C1CC[C@]2(O)C(=O)CO (stereo not given in full) :: 0.975
COC(=O)C[C@H]1C(C)(C)C(=O)[C@@H]2CC3C4=CC(=O)O[C@@H](c5ccoc5)[C@]4(C)CCC3[C@@]1(C)C2=O (stereo not given in full) :: 0.995
C#C[C@]1(O)CCC2C3CCC4=CC(=O)CC[C@@H]4C3CC[C@@]21C (stereo not given in full) :: 0.969

Now look at this one.
Asked: Return reported normalized growth. Input compound: Cc1ccc(S(=O)(=O)NC(=O)NN2CC3CCCC3C2)cc1 (stereo not given)
Given back: 0.995

###

Measurement Description: chemical genetic growth profiling, strain panel (AID 1159580);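 note: tested at 20 µM; growth read once vehicle control cultures reached saturation at 30 °C; 1 = growth at the plate median or of vehicle wells; lower values mean less growth of the strain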
Test Conditions: S. cerevisiae deletion strains, growth OD, locus YBR009C, strain hhf1, active compounds read low
Out of some 5,500 compounds screened, about 2,000 (36%) were called active. Inconclusive results (about 18%) are left out. The list shows a part of the results. Where a SMILES comes first, the peptide text is derived from it. Bridges are numbered along the chain shown (N, C = ends). [ ]: non-standard residue; d: D form. The star is where a group is joined. ξ: configuration not given here. ξDab(CH2SO3H) = NC(CCNCS(=O)(=O)O)C(=O)O; Heptanoyl(6-Me) = CC(C)CCCCC(=O)*; Dab = NCC[CH](N)C(=O)O
Let's look at some compounds and their measured normalized growth.

Recorded normalized growth, per entry:
CC1(C)CC[C@]2(C(=O)O)CC[C@]3(C)C(=CCC4[C@@]5(C)CC[C@@H](O)C(C)(C)C5CC[C@]43C)C2C1 (stereo partly drawn) :: 0.995 (inactive)
CC1(C)CC[C@]2(C)CC[C@]3(C)C(=CCC4[C@@]5(C)CC[C@H](O)C(C)(C)C5CC[C@]43C)C2C1 (stereo partly drawn) :: 1.02 (inactive)
FC(F)(F)c1ccccc1-n1ccnc1 :: 1.08 (inactive)
Nc1ccccc1C(=O)CC(N)C(=O)O (stereo not drawn) :: 1.01 (inactive)
CCC(C)C1NC(=O)C(CCNCS(=O)(=O)O)NC(=O)C(NC(=O)C(CCNCS(=O)(=O)O)NC(=O)C(NC(=O)C(CCNCS(=O)(=O)O)NC(=O)CCCCC(C)C)C(C)O)CCNC(=O)C(C(C)O)NC(=O)C(CCNCS(=O)(=O)O)NC(=O)C(CCNCS(=O)(=O)O)NC(=O)C(C(C)CC)NC1=O (stereo not drawn) ({Heptanoyl(6-Me)}-[ξDab(CH2SO3H)]T[ξDab(CH2SO3H)][Dab][ξDab(CH2SO3H)]II[ξDab(CH2SO3H)][ξDab(CH2SO3H)]T; lactam 4-C; configuration not given here) :: 0.971 (inactive)

Asked: Return reported normalized growth. Input compound: CNCc1ccccc1
Given back: 1.02 (inactive)

Asked: Return reported normalized growth. Input compound: CC(=O)/C=C\[C@@H]1[C@@]2(C)CCCC(C)(C)C2CC[C@@]1(C)O (stereo partly drawn)
Given back: 0.971 (inactive)

Asked: Return reported normalized growth. Input compound: COC1=C[C@@H]2[C@@H]3Cc4ccc(OC)c(O)c4[C@]2(CCN3C)CC1=O
Given back: 1 (inactive)
